# Assayed system: T1, rat collagen, acid soluble, type I, rat tail (Upstate 08-115) (rat, UniProt P02454 152-1207; P02466 86-1125)
# T1 construct: tissue extract, gelled and dried in wells; also called dried rat collagen
# T1 sequence (P02454 152-1207, chain 1 of 2): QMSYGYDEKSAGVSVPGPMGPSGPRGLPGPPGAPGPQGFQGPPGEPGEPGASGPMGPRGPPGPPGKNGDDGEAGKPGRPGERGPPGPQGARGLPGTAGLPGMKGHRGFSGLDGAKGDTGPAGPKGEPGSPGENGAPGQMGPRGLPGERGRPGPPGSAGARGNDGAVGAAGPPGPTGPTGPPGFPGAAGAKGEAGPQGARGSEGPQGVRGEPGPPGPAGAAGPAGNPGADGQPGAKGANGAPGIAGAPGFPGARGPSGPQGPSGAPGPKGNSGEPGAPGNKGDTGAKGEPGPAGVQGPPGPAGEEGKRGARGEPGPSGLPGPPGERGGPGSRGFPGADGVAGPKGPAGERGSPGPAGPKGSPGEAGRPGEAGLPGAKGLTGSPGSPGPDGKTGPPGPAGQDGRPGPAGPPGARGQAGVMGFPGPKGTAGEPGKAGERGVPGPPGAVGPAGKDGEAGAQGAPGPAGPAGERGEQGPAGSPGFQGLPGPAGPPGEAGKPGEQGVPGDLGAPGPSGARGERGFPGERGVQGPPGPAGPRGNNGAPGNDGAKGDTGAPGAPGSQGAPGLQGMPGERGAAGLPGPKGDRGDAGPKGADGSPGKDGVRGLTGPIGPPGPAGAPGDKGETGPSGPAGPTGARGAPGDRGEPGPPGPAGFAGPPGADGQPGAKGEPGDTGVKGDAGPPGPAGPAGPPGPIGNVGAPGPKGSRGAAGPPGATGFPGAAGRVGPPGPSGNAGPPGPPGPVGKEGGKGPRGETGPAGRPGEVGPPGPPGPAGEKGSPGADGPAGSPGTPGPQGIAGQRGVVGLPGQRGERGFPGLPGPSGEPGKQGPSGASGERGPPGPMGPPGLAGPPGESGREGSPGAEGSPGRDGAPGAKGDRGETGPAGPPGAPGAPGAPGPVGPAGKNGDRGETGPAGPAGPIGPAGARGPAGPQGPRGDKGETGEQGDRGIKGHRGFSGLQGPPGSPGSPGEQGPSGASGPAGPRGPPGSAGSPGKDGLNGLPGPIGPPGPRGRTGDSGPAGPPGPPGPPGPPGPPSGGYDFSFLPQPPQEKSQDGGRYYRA
# T1 sequence (P02466 86-1125, chain 2 of 2): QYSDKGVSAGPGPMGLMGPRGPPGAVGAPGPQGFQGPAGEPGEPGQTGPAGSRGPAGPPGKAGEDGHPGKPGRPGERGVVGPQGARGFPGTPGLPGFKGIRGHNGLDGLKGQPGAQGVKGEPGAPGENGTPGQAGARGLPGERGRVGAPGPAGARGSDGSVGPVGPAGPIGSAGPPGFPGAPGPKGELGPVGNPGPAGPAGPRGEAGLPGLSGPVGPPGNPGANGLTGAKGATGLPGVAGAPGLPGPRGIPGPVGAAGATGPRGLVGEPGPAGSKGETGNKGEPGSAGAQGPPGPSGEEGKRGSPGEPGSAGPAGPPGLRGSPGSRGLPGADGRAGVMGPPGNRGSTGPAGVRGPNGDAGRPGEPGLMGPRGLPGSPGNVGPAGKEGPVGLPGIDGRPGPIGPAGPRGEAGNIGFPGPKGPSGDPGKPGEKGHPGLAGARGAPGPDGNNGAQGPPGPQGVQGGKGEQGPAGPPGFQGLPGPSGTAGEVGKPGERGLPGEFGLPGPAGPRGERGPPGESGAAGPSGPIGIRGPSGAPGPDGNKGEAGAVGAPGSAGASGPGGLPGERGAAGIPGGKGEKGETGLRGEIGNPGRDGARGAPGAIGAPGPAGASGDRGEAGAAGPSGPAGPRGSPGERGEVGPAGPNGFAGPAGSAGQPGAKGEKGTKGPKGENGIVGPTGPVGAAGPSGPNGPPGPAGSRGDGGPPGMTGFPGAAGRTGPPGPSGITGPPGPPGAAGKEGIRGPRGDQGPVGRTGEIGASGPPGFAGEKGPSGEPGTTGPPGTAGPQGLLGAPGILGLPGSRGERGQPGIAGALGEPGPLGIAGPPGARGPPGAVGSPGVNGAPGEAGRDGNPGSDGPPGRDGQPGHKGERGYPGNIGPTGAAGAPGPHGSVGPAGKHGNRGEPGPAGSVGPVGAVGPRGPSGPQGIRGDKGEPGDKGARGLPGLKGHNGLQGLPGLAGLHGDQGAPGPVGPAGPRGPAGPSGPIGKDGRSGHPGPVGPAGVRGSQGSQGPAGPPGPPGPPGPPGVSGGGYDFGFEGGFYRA
# Assay explanation: dried collagen assay
Bridge positions count the residues as written; N and C are the ends. Square brackets hold non-standard residues; d marks the D form. Primed or numbered codes have the meaning given here. Side chains are listed from the residue outwards. Ends that are not written are not given here. Bip = N[C@@H](Cc1ccc(-c2ccccc2)cc1)C(=O)O; hTyr = N[C@@H](CCc1ccc(O)cc1)C(=O)O; 2Pal = N[C@@H](Cc1ccccn1)C(=O)O; Gd^T = not defined here; Gd^T″ = GdDTPA-thiourea
Metric: % bound (%)
Response body: numeric value in %, unit text excluded.

Example entries begin here.
[
  {
    "Binder": "{Gd^T″}-GQWHCTTDFPH[2Pal]YCLYG (disulfide 5-14) [Compound ID 888]",
    "% bound, %": 30
  },
  {
    "Binder": "{Gd^T″}-GQWHCTTRFPHH[hTyr]CLYG (disulfide 5-14 (inferred)) [Compound ID 933]",
    "% bound, %": 24
  },
  {
    "Binder": "{Gd^T}-GQWTCSGDEYTWHCAYE (disulfide 5-14 (inferred); not fully specified (C-terminus); reading uncertain) [Compound ID 839]",
    "% bound, %": 11
  },
  {
    "Binder": "{Gd^T″}-GQWHCTTLFPHHYCVYG (disulfide 5-14 (inferred)) [Compound ID 928]",
    "% bound, %": 80
  }
]

Consider the record given below.
Input: Given {Gd^T″}-GK([Gly-Gd^T″])WHCYTK(Gd^T″)FPHHYCVY[Bip]R (disulfide 5-14) [Compound ID 1009] , state its recorded % bound.
Output: 96
